Hello, the source for this data is patent US20240360151A1, in case you need it.

- SUBJECT_OF_TEST: NLRP3 inflammasome (Homo sapiens, UniProt Q96P20)
- Construct: endogenous in cells
- Sequence (Q96P20 whole entry): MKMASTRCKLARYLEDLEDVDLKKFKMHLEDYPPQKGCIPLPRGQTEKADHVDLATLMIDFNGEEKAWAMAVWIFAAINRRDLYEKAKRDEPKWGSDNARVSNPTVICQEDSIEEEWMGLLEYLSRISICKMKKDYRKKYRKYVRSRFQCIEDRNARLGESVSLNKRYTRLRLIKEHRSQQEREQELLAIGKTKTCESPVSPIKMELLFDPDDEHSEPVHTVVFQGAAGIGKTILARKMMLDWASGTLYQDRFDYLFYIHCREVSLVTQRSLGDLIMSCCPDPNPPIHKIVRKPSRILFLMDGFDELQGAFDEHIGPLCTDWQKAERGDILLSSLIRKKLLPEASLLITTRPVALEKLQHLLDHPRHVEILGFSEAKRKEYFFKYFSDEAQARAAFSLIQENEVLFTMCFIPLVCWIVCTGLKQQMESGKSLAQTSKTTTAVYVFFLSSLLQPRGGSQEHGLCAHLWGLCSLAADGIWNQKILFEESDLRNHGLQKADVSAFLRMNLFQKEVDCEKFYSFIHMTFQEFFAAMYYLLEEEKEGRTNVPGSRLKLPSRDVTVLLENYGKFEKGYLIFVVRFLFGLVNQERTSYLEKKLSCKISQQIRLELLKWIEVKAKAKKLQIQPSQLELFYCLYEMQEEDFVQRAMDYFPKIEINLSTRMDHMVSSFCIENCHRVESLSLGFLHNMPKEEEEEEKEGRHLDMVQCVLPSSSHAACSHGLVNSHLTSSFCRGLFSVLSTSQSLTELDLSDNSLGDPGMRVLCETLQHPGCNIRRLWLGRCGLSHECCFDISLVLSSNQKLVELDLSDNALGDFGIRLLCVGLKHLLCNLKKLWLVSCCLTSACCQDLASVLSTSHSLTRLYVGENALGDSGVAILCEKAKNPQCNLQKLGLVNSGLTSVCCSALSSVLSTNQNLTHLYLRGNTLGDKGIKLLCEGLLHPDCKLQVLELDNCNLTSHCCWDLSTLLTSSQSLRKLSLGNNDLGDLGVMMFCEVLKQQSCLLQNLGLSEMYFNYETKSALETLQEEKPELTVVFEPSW
- ASSAY_NOTES: IL-1β secretion assay (NLRP3 IC50) in LPS-primed, nigericin-activated THP-1 cells, HTRF
- CONDITION_SUMMARY: monocytic THP-1 cells; LPS 10 ng/mL 3 h priming, then compound + nigericin 10 μM 2 h; relative IC50, 10 concentrations, geometric mean
pIC50: −log10 of the molar value.

COMPOUND	pIC50
[2H]C([2H])(O)[C@@H]1CN(c2ccc(-c3c(C)cc(C)cc3O)nn2)CCO1	7.38
CCN1CC[C@@H]2CCN(c3ccc(-c4c(C)cc(C)cc4O)nn3)[C@@H]2C1 (single isomer, unassigned)	9.40
CCc1cccc(O)c1-c1cc(C(F)F)c(N2CCO[C@@H]3CCN(C)C[C@@H]32)nn1	7.26
Cc1ccc(-c2nnc(N3CC[C@H]4CCN(C)C[C@H]43)cc2C(F)F)c(O)c1 (single isomer, unassigned)	9.00
Cc1cc(C(F)(F)F)cc(O)c1-c1ccc(N2C[C@@H](CO)O[C@@H](CO)C2)nn1	8.15
Cc1cc(C)c(-c2ccc(N3CCO[C@H](CN)C3)nn2)c(O)c1	6.21
Cc1cc(C)c(-c2ccc(N3CC[C@H](CO)C3)nn2)c(O)c1	6.55
